tested on: NCI/ADR-RES ovarian; experiment: NCI tumour cell line growth inhibition, 48 h; in the data active = GI50 below about 0.43 µM; inactive = the rest
Outcomes you can answer with include only these: true (1) (active), false (0) (inactive)

How did this test come out for COc1ccc2c(c1)C(C)Cc1c(Cl)nc(C)nc1N2C (centres undefined) ?
false (0)

Also, CC1(C)CC[C@]2(C(=O)N3CCOCC3)CC[C@]3(C)C(=CC[C@@H]4[C@@]5(C)C/C(=C/c6ccncc6)C(=O)C(C)(C)[C@@H]5CC[C@]43C)[C@@H]2C1 please.
false (0)

Consider next the molecule CCN1C(=O)N(CC)C2C1NN=c1s/c(=C\c3cc4ccccc4[nH]3)c(=O)n12 (centres undefined) in the same way.
true (1)

How about this molecule: N=C(N)c1ccc(COc2ccccc2OCc2ccc(C(=N)N)cc2)cc1
false (0)

Please answer likewise for COc1cc(C2C3=C(COC3=O)Nc3cc4c(cc32)CCC4)cc2c1OCO2 (centres undefined)
true (1)

Also CC(C)C[C@H](NC(=O)[C@@H](O)[C@H](N)Cc1ccc([N+](=O)[O-])cc1)C(=O)O , if possible.
false (0)

Can you check CC(C)(C#N)c1cc(C(=O)Nc2cc(Nc3ncccc3-c3ncnc4nc[nH]c34)ccc2F)cc(C(F)(F)F)c1 next?
false (0)

Same thing, different molecule: CCCOC(=O)CCn1c(SC)nc2[nH]cc(-c3ccccc3)c2c1=O
false (0)

# repeat for Nc1cc(N)c2nc(-c3ccccc3)c(NCc3ccc(F)cc3)nc2c1
false (0)

Now the same for Cc1c(Cl)cccc1NC1=C(Cl)C(=O)N(Cc2ccccc2)C1=O
false (0)

What do you have for O=C(CN(/C=C/C(=O)C(F)(F)F)c1ccccc1)c1ccc(Cl)c(Cl)c1 ?
false (0)

Another molecule to look at: COCCNc1cc(NC(=O)N2CCCc3cc(CN4CCN(C)CC4=O)c(C=O)nc32)ncc1C#N
false (0)

Note, next up: O=C(c1cccnc1)c1cc(-c2ccccn2)c(=O)n2ccccc12
false (0)

Let us now turn to O=C(N/N=C/c1cc([N+](=O)[O-])ccc1O)c1cccc2ccccc12
false (0)

Proceed to CCCCCCCOc1c(OC)cc(C2CC(=O)Nc3c2c(C)nn3-c2nc3ccccc3[nH]2)cc1OC (centres undefined)
false (0)

# repeat for Cc1[nH]c2ccccc2c1CCNCc1ccc(/C=C/C(=O)NO)cc1
true (1)

Next up: Nc1ccc(-c2ccc(N)cc2I)c(I)c1
false (0)

// same read-out, input: CCCCN(CCCC)c1ccc(C(=NC(C)CCCN(CC)CC)c2ccc(N(C)C)cc2)cc1 (centres undefined)
false (0)

Next record, please: CCCc1cc(=O)n2c(C(=O)Nc3ccccc3OC)c(C(=O)Nc3ccc(F)cc3)sc2n1
false (0)
